Target: human leucocyte elastase (HLE) (Homo sapiens, UniProt P08246)
Construct: purchased Calbiochem
Sequence (P08246 30-267): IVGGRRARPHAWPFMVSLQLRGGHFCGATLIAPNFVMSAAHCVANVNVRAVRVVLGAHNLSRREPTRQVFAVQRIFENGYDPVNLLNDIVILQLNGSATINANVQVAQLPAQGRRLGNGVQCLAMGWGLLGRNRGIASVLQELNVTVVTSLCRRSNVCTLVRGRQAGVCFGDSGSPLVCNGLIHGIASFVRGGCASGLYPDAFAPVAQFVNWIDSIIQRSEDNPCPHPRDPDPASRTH
Assay: HLE (human leucocyte elastase) inhibition kinetics
Type: biochemical
Conditions: Table 3; 37° C., pH 7.4; * outside determination limits
Listed below: "Efficacy" K5 /K1 values for each entry.
value_kind: "Efficacy" K5 /K1

compound="CO[C@H]1C(=O)N2C(C(=O)c3ccccc3)=C(C)C(OC(=O)c3ccccc3)S(=O)(=O)[C@H]12 (stereo partly shown)" recorded_measurement="8 M⁻¹ s⁻¹"
compound="CCCCC(CC)C(=O)OC1C(C)=C(C(=O)C(C)(C)C)N2C(=O)[C@H](OC)[C@H]2S1(=O)=O (stereo partly shown)" recorded_measurement="< 2 M⁻¹ s⁻¹"
compound="CO[C@H]1C(=O)N2C(C(=O)c3ccccc3)=C(C)C(OC(=O)c3ccc(C(=O)O)cc3)S(=O)(=O)[C@H]12 (stereo partly shown)" recorded_measurement="29 M⁻¹ s⁻¹"
compound="CO[C@H]1C(=O)N2C(C(=O)C(C)(C)C)=C(C)C(OC(=O)c3ccc(C(=O)c4ccccc4)cc3)S(=O)(=O)[C@H]12 (stereo partly shown)" recorded_measurement="2 M⁻¹ s⁻¹"
compound="CO[C@H]1C(=O)N2C(C(=O)C(C)(C)C)=C(C)C(OC(=O)c3ccc4ccccc4c3)S(=O)(=O)[C@H]12 (stereo partly shown)" recorded_measurement="< 2 M⁻¹ s⁻¹"
compound="CO[C@H]1C(=O)N2C(C(=O)C(C)(C)C)=C(CSc3nnnn3C)C(OC(=O)c3ccccc3)S(=O)(=O)[C@H]12 (stereo partly shown)" recorded_measurement="< 2 M⁻¹ s⁻¹"
compound="CO[C@H]1C(=O)N2C(C(=O)C(C)(C)C)=C(C)C(OC(=O)c3ccc(CSc4nc(=O)c(O)nn4C)cc3)S(=O)(=O)[C@H]12 (stereo partly shown)" recorded_measurement="< 2 M⁻¹ s⁻¹"

----------
Listed below: Ki values for each entry.
Biological target: human leucocyte elastase (HLE) (Homo sapiens, UniProt P08246)
Construct: purchased Calbiochem
Test: HLE (human leucocyte elastase) inhibition kinetics
Format: biochemical
Conditions: Table 3; 37° C., pH 7.4; * outside determination limits; read-out: "Potency" Ki ^33
value_kind: Ki (µM)

compound="CO[C@H]1C(=O)N2C(C(=O)C(C)(C)C)=C(C)C(OC(=O)c3ccc(C(=O)c4ccccc4)cc3)S(=O)(=O)[C@H]12 (stereo partly drawn)" value_kind=Ki recorded_measurement=500
compound="CO[C@H]1C(=O)N2C(C(=O)C(C)(C)C)=C(C)C(OC(=O)c3ccc(CSc4nc(=O)c(O)nn4C)cc3)S(=O)(=O)[C@H]12 (stereo partly drawn)" value_kind=Ki recorded_measurement=700
compound="CO[C@H]1C(=O)N2C(C(=O)c3ccccc3)=C(C)C(OC(=O)c3ccc(C(=O)O)cc3)S(=O)(=O)[C@H]12 (stereo partly drawn)" value_kind=Ki recorded_measurement=34
